# assayed-target: Human immunodeficiency virus type 1 protease (Human immunodeficiency virus 1)
pIC50: −log10 of the molar value.

- compound: "Cc1cc(SC2=C(O)OC(CCc3ccc(O)cc3)(C(C)C)CC2=O)c(C(C)(C)C)cc1OS(C)(=O)=O (stereo not given)"
  pIC50: 8.66
- compound: "Cc1cc(SC2=C(O)OC(CCc3ccccc3)(C(C)C)CC2=O)c(C(C)(C)C)cc1NS(=O)(=O)c1cccs1 (stereo not given)"
  pIC50: 8.44
- compound: "Cc1cc(SC2=C(O)OC(CCc3ccccc3)(C(C)C)CC2=O)c(C(C)(C)C)cc1OS(=O)(=O)c1cccnc1 (stereo not given)"
  pIC50: 7.85
- compound: "Cc1cc(SC2=C(O)OC(CCc3ccc(O)cc3)(C(C)C)CC2=O)c(C(C)(C)C)cc1NS(=O)(=O)c1ccccc1 (stereo not given)"
  pIC50: 8.74
- compound: "Cc1cc(SC2=C(O)OC(CCc3ccc(O)cc3)(C(C)C)CC2=O)c(C(C)(C)C)cc1NS(=O)(=O)c1ccc(Cl)cc1 (stereo not given)"
  pIC50: 8.28

###

Each entry below carries its reported CC50.
# assay-summary: Concentration which elicits cytotoxicity in 50% of uninfected human lymphocyte derived CEM cells
# Format: cell-based, CCRF-CEM
# experimental-setup: uninfected CCRF-CEM cells, read-out: TC50 (the source's name)

- compound: "Cc1cc(SC2=C(O)OC(CCc3ccc(O)cc3)(C3CCCCC3)CC2=O)c(C(C)(C)C)cc1OS(=O)(=O)c1ccc(C#N)cc1 (stereo not given)"
  unit-of-measurement: "µM"
  censoring-sign: "="
  CC50: 29
- compound: "Cc1cc(SC2=C(O)OC(CCc3ccc(O)cc3)(C(C)C)CC2=O)c(C(C)(C)C)cc1NS(=O)(=O)N(C)C (stereo not given)"
  unit-of-measurement: "µM"
  censoring-sign: ">"
  CC50: 100
- compound: "Cc1cc(SC2=C(O)OC(CCc3ccc(O)cc3)(C(C)C)CC2=O)c(C(C)(C)C)cc1OS(=O)(=O)c1ccc(C#N)cc1 (stereo not given)"
  unit-of-measurement: "µM"
  censoring-sign: "="
  CC50: 67
- compound: "Cc1cc(SC2=C(O)OC(C)(CCc3ccc(O)cc3)CC2=O)c(C(C)(C)C)cc1NS(=O)(=O)c1ccc(C(F)(F)F)cc1 (stereo not given)"
  unit-of-measurement: "µM"
  censoring-sign: "="
  CC50: 79
- compound: "CC(=O)Nc1ccc(S(=O)(=O)Nc2cc(C(C)(C)C)c(SC3=C(O)OC(C)(CCc4ccc(O)cc4)CC3=O)cc2C)cc1 (stereo not given)"
  unit-of-measurement: "µM"
  censoring-sign: ">"
  CC50: 100
- compound: "Cc1cc(SC2=C(O)O[C@](CCc3ccc(O)cc3)(C(C)C)CC2=O)c(C(C)(C)C)cc1OS(C)(=O)=O"
  unit-of-measurement: "µM"
  censoring-sign: "="
  CC50: 80
- compound: "Cc1cc(SC2=C(O)O[C@](CCc3ccccc3)(C(C)C)CC2=O)c(C(C)(C)C)cc1NS(=O)(=O)c1ccc(C#N)cc1"
  unit-of-measurement: "µM"
  censoring-sign: "="
  CC50: 31
- compound: "Cc1cc(SC2=C(O)OC(CCc3ccc(O)cc3)(C3CCCCC3)CC2=O)c(C(C)(C)C)cc1OS(=O)(=O)c1ccccc1 (stereo not given)"
  unit-of-measurement: "µM"
  censoring-sign: "="
  CC50: 59
- compound: "Cc1cc(SC2=C(O)O[C@@](CCc3ccc(O)cc3)(C(C)C)CC2=O)c(C(C)(C)C)cc1NS(=O)(=O)c1ccc(C(F)(F)F)cn1"
  unit-of-measurement: "µM"
  censoring-sign: "="
  CC50: 66
- compound: "Cc1cc(SC2=C(O)OC(C)(CCc3ccc(O)cc3)CC2=O)c(C(C)(C)C)cc1NS(=O)(=O)c1ccc(Cl)cc1 (stereo not given)"
  unit-of-measurement: "µM"
  censoring-sign: "="
  CC50: 71
- compound: "Cc1cc(SC2=C(O)OC(C)(CCc3ccc(O)cc3)CC2=O)c(C(C)(C)C)cc1OS(=O)(=O)c1ccc(F)cc1 (stereo not given)"
  unit-of-measurement: "µM"
  censoring-sign: "="
  CC50: 100
- compound: "Cc1cc(SC2=C(O)O[C@](CCc3ccccc3)(C(C)C)CC2=O)c(C(C)(C)C)cc1NS(=O)(=O)c1ccc(C(F)(F)F)cn1"
  unit-of-measurement: "µM"
  censoring-sign: "="
  CC50: 65
- compound: "Cc1cc(SC2=C(O)OC(CCc3ccc(O)cc3)(C(C)C)CC2=O)c(C(C)(C)C)cc1OS(=O)(=O)c1ccccc1 (stereo not given)"
  unit-of-measurement: "µM"
  censoring-sign: "="
  CC50: 66
- compound: "Cc1cc(SC2=C(O)OC(CCc3ccccc3)(C(C)C)CC2=O)c(C(C)(C)C)cc1NS(=O)(=O)c1cccc(C#N)c1 (stereo not given)"
  unit-of-measurement: "µM"
  censoring-sign: "="
  CC50: 66
- compound: "CCNS(=O)(=O)Nc1cc(C(C)(C)C)c(SC2=C(O)OC(CCc3ccc(O)cc3)(C(C)C)CC2=O)cc1C (stereo not given)"
  unit-of-measurement: "µM"
  censoring-sign: ">"
  CC50: 100
- compound: "Cc1cc(SC2=C(O)OC(CCc3ccccc3)(C(C)C)CC2=O)c(C(C)(C)C)cc1OS(=O)(=O)c1cccnc1 (stereo not given)"
  unit-of-measurement: "µM"
  censoring-sign: "="
  CC50: 65
- compound: "Cc1cc(SC2=C(O)OC(CCc3ccccc3)(C(C)C)CC2=O)c(C(C)(C)C)cc1NS(=O)(=O)c1cccs1 (stereo not given)"
  unit-of-measurement: "µM"
  censoring-sign: "="
  CC50: 61
- compound: "Cc1cc(SC2=C(O)OC(CCc3ccccc3)(C(C)C)CC2=O)c(C(C)(C)C)cc1NS(C)(=O)=O (stereo not given)"
  unit-of-measurement: "µM"
  censoring-sign: ">"
  CC50: 100
- compound: "Cc1cc(SC2=C(O)OC(CCc3ccc(O)cc3)(C(C)C)CC2=O)c(C(C)(C)C)cc1NS(=O)(=O)c1ccccn1 (stereo not given)"
  unit-of-measurement: "µM"
  censoring-sign: ">"
  CC50: 100
- compound: "Cc1cc(SC2=C(O)OC(CCc3ccccc3)(C(C)C)CC2=O)c(C(C)(C)C)cc1OS(=O)(=O)c1ccc(C#N)cc1 (stereo not given)"
  unit-of-measurement: "µM"
  censoring-sign: "="
  CC50: 25

Data provenance: ChEMBL document CHEMBL1132961
